Quick reference: GSH: Glutathione score of the listed items.
- Test system: HL60 cells
- TEST_NAME: AsedaSciences SYSTEMETRIC Cell Health Screen (flow cytometry toxicity profiling)
- CONDITIONS: HL60, 4 h, 5 nM–100 µM, probability 0–1, n = 2
# output: bare number, no unit

Use these answered entries as a reference point.
>  <MOLECULE>
CC(CN1c2ccccc2Sc2ccccc21)N(C)C (stereo not shown) [Promethazine, reference compound]

>  <QUANTITATIVE_RESULT>
0.96

$$$$
>  <MOLECULE>
CC(c1cc2ccccc2s1)N(O)C(N)=O (stereo not shown) [Zileuton, reference compound]

>  <QUANTITATIVE_RESULT>
0.020

$$$$
>  <MOLECULE>
C#Cc1cccc(Nc2ncnc3cc4c(cc23)OCCO4)c1

>  <QUANTITATIVE_RESULT>
0.39

$$$$

// next entry
// GSH: Glutathione score lookup, molecule = Cc1ccc(-c2cc(C(F)(F)F)nn2-c2ccc(S(N)(=O)=O)cc2)cc1 [Celecoxib, reference compound] , result: 0.36
